- tested_target: TDP-43 (Homo sapiens, UniProt Q13148 1-414)
- Sequence (Q13148 whole entry): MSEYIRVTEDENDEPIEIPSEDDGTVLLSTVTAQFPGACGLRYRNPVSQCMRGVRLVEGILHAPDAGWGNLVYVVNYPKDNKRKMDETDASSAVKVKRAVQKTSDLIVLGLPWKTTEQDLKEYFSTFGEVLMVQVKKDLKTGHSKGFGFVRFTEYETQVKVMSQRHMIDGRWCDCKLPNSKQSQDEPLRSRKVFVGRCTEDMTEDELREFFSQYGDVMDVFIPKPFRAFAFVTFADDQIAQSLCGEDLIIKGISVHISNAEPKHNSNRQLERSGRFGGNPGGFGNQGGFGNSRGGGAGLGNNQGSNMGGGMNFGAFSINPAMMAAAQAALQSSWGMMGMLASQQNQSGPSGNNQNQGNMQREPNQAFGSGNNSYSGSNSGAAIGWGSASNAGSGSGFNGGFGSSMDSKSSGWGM
- test_details: RNA Bind-n-Seq with designed 260-mer pool; 25 mM Tris-HCl, 150 mM KCl, 3 mM MgCl2, BSA (printed 500 mg/mL), 20 units/mL SUPERase IN; pH not stated; 500 nM RNA pool, 1 h, 4 C; TDP-43 5, 50, 500 nM; high values mean tight binding
- condition_label: protein: recombinant; tags: SBP (GST cleaved off with PreScission; pGEX-GST-SBP)
The full ranking holds about 9,900 sequences; the median of “r (bound/input frequency ratio)” is about 0.7, and the highest 2% start at about 6.5. This is one part of a sample in which the highest values are shown more often than they occur.
assay_metric: binding signal

ENSMUSG00000058297.23|Spock2 (ssRNA) RNA: GGGAGUUCUACAGUCCGACGAUCGCUUCGAUAUCCGCAUGCUACCGACGGCCAGAAAGACAGGCCAGAAGAGACCUGGACAACAGCAGGCAACUUAGCAAAUGGAUCCGGAAGUCAGUGCGGAGGACCCUGGCUCCAGUGGGGGAGGACUGGGGAGUGUGGCUUGUGUGUAUGUGUGAUAUGAGAUGUGUGUGUAUGAUGUGAGAUGUGAGUGUGUGAUGUGAGAUGUGUGUAUGUGAGAUGUGUGUGUGUGUGUGUGUGUGUGUGAUGUGAGUCACCCAAAGGUCCCUAUGUUAUUGAUUUUCUCUUGCGGUCGCACUAGUGUGGAAUUCUCGGGUGUCAAGG
6.74 R (bound/input frequency ratio)

Q) Would you mind telling me what binding signal value was observed for ENSMUSG00000058297.26|Spock2 (ssRNA) RNA: GGGAGUUCUACAGUCCGACGAUCGCUUCGAUAUCCGCAUGCUAGGCCAGAAGAGACCUGGACAACAGCAGGCAACUUAGCAAAUGGAUCCGGAAGUCAGUGCGGAGGACCCUGGCUCCAGUGGGGGAGGACUGGGGAGUGUGGCUUGUGUGUAUGUGUGAUAUGAGAUGUGUGUGUAUGAUGUGAGAUGUGAGUGUGUGAUGUGAGAUGUGUGUAUGUGAGAUGUGUGUGUGUGUGUGUGUGUGUGUGAUGUGAGUCACCCAAAGGUCCCUAUGUUAUUGAUUUUCAAAUGCACACUUUCACACUCUUGCGGUCGCACUAGUGUGGAAUUCUCGGGUGUCAAGG ?
A) 6.34 R (bound/input frequency ratio)
